Values were extracted from the supplement of paper PMC10567573.

B1: FBF1 (parent)
chain: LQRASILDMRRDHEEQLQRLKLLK

Variants of: B1
measurement-notes: protein stability index of a GFP-peptide fusion (GPS, HEK-293T) (PSI 1-6); higher = more stable;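 also: lentivirally expressed fusions sorted by FACS into six bins by GFP to DsRed ratio, PSI derived from sequencing read proportions per bin multiplied by bin number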
recorded-conditions: c terminus: a fixed tail appended
Rule: protein stability index under 3 gives FALSE, otherwise TRUE.

Given the entry "A4H" , answer whether its protein stability index meets or surpasses 3.
TRUE

How about "L7D" ?
TRUE

Now consider "L23I" .
TRUE

Also "D8F" , if possible.
FALSE

Now the variant "E14F"
FALSE

Another variant to look at: "K24G"
TRUE

Proceed to "L20Q"
TRUE

// repeat for "S5Q" and report
TRUE
